Reference source: patent US20130251703A1

The entries below come with measured BT474 pHER3 IC50 values attached.
SYSTEM UNDER TEST: human HER3 endogenously expressed on human cancer cells (SK-Br-3, BT-474, MCF7) (human, UniProt P21860 20-1342)
EXPERIMENTAL DETAILS: cell-based or functional assay
The reply should be a number in pM, with the unit left off.

# annotated cases, reported BT474 pHER3 IC50 shown
# BINDER, VALUE OBSERVED
records = [
    ("MOR12603 (antibody, human IgG1, kappa, V domains shown, Tested as IgG) VH: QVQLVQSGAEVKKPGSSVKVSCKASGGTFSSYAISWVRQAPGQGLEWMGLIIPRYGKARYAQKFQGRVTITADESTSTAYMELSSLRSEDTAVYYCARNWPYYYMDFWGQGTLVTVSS VL: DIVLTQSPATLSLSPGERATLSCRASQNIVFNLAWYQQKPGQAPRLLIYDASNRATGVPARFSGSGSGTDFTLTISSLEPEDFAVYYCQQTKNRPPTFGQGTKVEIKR", 79),
    ("MOR13666 (antibody, human IgG1, lambda, V domains shown, Tested as IgG) VH: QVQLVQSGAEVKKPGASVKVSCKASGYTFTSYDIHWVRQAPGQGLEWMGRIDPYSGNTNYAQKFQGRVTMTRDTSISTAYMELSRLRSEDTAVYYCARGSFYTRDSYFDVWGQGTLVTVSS VL: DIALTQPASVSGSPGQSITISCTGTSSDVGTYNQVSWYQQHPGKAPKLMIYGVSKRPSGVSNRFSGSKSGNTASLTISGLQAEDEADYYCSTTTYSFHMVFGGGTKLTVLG", 420),
    ("MOR12604 (antibody, V domains shown, Tested as IgG) VH: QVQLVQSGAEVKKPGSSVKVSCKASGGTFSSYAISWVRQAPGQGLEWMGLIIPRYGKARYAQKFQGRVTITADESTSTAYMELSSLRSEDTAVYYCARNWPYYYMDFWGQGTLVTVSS VL: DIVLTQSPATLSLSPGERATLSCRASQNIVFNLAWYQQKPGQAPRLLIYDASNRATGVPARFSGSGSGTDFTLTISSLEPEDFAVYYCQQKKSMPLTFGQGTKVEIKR", 142),
]

Looking up MOR12921 (antibody, human IgG1, lambda, V domains shown, Tested as IgG) VH: QVQLVQSGAEVKKPGASVKVSCKASGYTFTGYYMHWVRQAPGQGLEWMGDIDPHSGNAVYAQKFQGRVTMTRDTSISTAYMELSRLRSEDTAVYYCARGSFYTRDSYFDVWGQGTLVTVSS VL: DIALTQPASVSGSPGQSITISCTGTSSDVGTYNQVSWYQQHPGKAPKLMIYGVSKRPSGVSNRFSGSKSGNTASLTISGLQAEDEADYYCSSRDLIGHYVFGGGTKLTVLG , I see its BT474 pHER3 IC50 listed as 418

Looking up MOR12920 (antibody, human IgG1, lambda, V domains shown) VH: QVQLVQSGAEVKKPGASVKVSCKASGYTFTGYYMHWVRQAPGQGLEWMGDIEPYHGKPLYAQKFQGRVTMTRDTSISTAYMELSRLRSEDTAVYYCARGSFYTRDSYFDVWGQGTLVTVSS VL: DIALTQPASVSGSPGQSITISCTGTSSDVGTYNQVSWYQQHPGNAPKLMIYGVSKRPSGVSNRFSGSKSGNTASLTISGLQAEDEADYYCSSRDLIGHYVFGGGTKLTVLG , I see its BT474 pHER3 IC50 listed as 2020
